Data credit: paper PMC6098246

tested_target: T1, NFS1-ISD11-ACP (SDA) complex (human | E. coli, UniProt Q9Y697 56-457; Q9HD34 1-91; P0A6A8 1-78)
T1 construct: human cysteine desulfurase NFS1, non-tagged, construct Δ1-55; human ISD11 (LYRM4), His-tagged; E. coli acyl carrier protein (ACP) of the expression host, co-purified with NFS1-ISD11; PLP was added during the purification; also called NFS1-ISD11-ACP desulfurase complex; NFS1-ISD11 complex; source: co-purified with E. coli ACP; copies: + +
T1 sequence (Q9Y697 56-457, chain 1 of 3): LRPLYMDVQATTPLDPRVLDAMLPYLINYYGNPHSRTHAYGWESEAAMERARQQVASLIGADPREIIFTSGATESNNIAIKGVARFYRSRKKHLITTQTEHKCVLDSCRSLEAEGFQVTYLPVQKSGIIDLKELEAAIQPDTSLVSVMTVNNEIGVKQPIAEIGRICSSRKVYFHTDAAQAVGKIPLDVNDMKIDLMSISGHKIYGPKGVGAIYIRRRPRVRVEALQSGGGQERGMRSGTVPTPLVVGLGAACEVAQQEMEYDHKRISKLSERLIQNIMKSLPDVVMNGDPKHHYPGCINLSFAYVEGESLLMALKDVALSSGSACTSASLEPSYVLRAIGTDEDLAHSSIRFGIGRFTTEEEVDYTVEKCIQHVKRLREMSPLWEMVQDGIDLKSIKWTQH
T1 sequence (Q9HD34 whole entry, chain 2 of 3): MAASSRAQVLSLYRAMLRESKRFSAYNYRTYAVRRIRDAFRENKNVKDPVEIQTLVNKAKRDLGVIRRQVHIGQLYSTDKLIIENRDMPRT
T1 sequence (P0A6A8 whole entry, chain 3 of 3): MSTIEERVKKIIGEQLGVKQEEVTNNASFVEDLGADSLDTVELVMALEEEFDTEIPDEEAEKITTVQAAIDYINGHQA
method_summary: BLI; biotinylated ISCU on streptavidin sensors, SDA 10 uM to 1.56 nM in solution; 25 °C; 50 mM HEPES pH 7.5, 200 mM NaCl, 5% glycerol, 2 mM TCEP, 5 mM DTT, 0.5 mg/mL BSA, with 100 uM ZnCl2 (zinc-bound ISCU); Kd from response vs. [NFS1], one site-specific binding fit
condition_details: both partners purified
Could you please report measured Kd for the items listed next?
The response must be a number in nM with no trailing unit.

Ask | I'd like to know its Kd. The binder in question is biotinylated human ISCU M140I (Δ1-34) (natural protein, UniProt Q9H1K1 35-167, looked up, biotin (site not stated), human ISCU, construct Δ1-34 of the 167-aa precursor, variant M140I; source: E. coli BL21 (DE3)-R3-pRARE2, purified (Ni Sepharose, Superdex S75, His-tag removed by TEV)) YHKKVVDHYENPRNVGSLDKTSKNVGTGLVGAPACGDVMKLQIQVDEKGKIVDARFKTFGCGSAIASSSLATEWVKGKTVEEALTIKNTDIAKELCLPPVKLHCSILAEDAIKAALADYKLKQEPKKGEAEKK
Reply | 194

Ask | Thanks! And biotinylated human ISCU M140V (Δ1-34) (natural protein, UniProt Q9H1K1 35-167, looked up, biotin (site not stated), human ISCU, construct Δ1-34 of the 167-aa precursor, variant M140V; source: E. coli BL21 (DE3)-R3-pRARE2, purified (Ni Sepharose, Superdex S75, His-tag removed by TEV)) YHKKVVDHYENPRNVGSLDKTSKNVGTGLVGAPACGDVMKLQIQVDEKGKIVDARFKTFGCGSAIASSSLATEWVKGKTVEEALTIKNTDIAKELCLPPVKLHCSVLAEDAIKAALADYKLKQEPKKGEAEKK ?
Reply | 218

Ask | Thanks! And biotinylated human ISCU M140L (Δ1-34) (natural protein, UniProt Q9H1K1 35-167, looked up, biotin (site not stated), human ISCU, construct Δ1-34 of the 167-aa precursor, variant M140L; source: E. coli BL21 (DE3)-R3-pRARE2, purified (Ni Sepharose, Superdex S75, His-tag removed by TEV)) YHKKVVDHYENPRNVGSLDKTSKNVGTGLVGAPACGDVMKLQIQVDEKGKIVDARFKTFGCGSAIASSSLATEWVKGKTVEEALTIKNTDIAKELCLPPVKLHCSLLAEDAIKAALADYKLKQEPKKGEAEKK ?
Reply | 181

Ask | Thanks! And biotinylated human ISCU wild-type (Δ1-34) (natural protein, UniProt Q9H1K1 35-167, looked up, biotin (site not stated), human ISCU, construct Δ1-34 of the 167-aa precursor (133-aa mature protein without the mitochondrial signal peptide); the two conditions are two assays; Measured mass of the apo-protein 14604 Da; also called ISCUWT; WT; source: E. coli BL21 (DE3)-R3-pRARE2, purified (Ni Sepharose, Superdex S75, His-tag removed by TEV)) YHKKVVDHYENPRNVGSLDKTSKNVGTGLVGAPACGDVMKLQIQVDEKGKIVDARFKTFGCGSAIASSSLATEWVKGKTVEEALTIKNTDIAKELCLPPVKLHCSMLAEDAIKAALADYKLKQEPKKGEAEKK ?
Reply | 160
